Source listed as ChEMBL document CHEMBL5338804.

Lab note: IC50 readings collected with Ribosomal protein S6 kinase alpha-1 (Homo sapiens) for the following compounds.
Sequence (Q15418 whole entry): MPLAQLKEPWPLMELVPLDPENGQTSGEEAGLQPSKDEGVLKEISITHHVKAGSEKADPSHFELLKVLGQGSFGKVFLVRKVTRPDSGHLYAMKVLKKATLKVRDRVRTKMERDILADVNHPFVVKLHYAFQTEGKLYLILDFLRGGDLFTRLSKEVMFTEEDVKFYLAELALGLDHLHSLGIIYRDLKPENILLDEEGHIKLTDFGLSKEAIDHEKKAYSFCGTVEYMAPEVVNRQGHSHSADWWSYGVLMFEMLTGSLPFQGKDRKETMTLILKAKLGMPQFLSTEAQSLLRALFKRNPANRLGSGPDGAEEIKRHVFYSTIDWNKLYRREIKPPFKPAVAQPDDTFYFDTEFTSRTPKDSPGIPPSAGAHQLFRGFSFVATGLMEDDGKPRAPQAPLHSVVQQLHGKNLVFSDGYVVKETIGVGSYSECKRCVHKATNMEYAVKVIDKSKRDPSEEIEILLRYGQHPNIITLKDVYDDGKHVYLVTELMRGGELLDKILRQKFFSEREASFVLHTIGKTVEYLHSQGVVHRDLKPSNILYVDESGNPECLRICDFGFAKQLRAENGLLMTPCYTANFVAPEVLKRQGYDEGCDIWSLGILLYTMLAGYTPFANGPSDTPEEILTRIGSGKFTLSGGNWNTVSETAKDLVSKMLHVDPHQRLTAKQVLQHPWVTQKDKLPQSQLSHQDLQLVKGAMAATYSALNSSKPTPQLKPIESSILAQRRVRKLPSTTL
measurement.kind: IC50

[[record]]
mol = "N#Cc1ccc(Nc2nccc(C(=O)Nc3cnccc3-c3ccc(F)cc3)n2)cc1"
readout_value = "> 50 µM"

[[record]]
mol = "O=C(Nc1cnccc1-c1ccc(F)cc1)c1ccnc(Nc2ccc(F)cc2)n1"
readout_value = "> 50 µM"


* * *

- assay.details: Cmax in C57BL/6 mouse at 10 mg/kg, po by LC-MS/MS analysis
- Assay type: ADME, organism-based
- Set-up: dose 10 mg/kg, route po
- recorded.conditions: in vivo
Attribute: Cmax
measurement.kind: Cmax (nM)

[[record]]
mol = "O=C(Nc1cnccc1-c1ccc(F)cc1)c1ccnc(Nc2ccc(F)cc2)n1"
measurement_kind = "Cmax"
readout_value = 1500

[[record]]
mol = "N#Cc1ccc(Nc2nccc(C(=O)Nc3cnccc3-c3ccc(F)cc3)n2)cc1"
measurement_kind = "Cmax"
readout_value = 3500

[[record]]
mol = "O=C(Nc1cnccc1-c1ccc(F)cc1)c1ccnc(Nc2ccc(Cl)cc2)n1"
measurement_kind = "Cmax"
readout_value = 1400


* * *

- measurement.target: Glycogen synthase kinase-3 beta (Homo sapiens, UniProt P49841, H355L)
- Sequence (P49841 whole entry, looked up, stated change not applied, the tested form may be a part): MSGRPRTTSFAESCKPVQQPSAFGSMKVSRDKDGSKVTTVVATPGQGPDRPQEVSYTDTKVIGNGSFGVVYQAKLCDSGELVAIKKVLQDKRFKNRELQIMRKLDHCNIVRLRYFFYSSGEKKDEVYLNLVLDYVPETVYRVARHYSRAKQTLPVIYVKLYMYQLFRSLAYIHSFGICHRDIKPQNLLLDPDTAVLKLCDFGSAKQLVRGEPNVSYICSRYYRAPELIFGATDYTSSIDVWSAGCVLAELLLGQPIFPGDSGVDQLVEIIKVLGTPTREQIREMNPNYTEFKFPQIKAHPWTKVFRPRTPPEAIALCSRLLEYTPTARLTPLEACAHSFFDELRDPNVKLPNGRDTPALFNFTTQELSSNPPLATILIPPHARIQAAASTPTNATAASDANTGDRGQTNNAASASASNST
- assay.details: Displacement of FL-KRREILSRRP[ps]ERYR-NH2 from human recombinant N-terminal His6-tagged GSK-3-beta (14 to 306 residues) H355L mutant expressed in baculovirus-infected Sf21 cells incubated for 20 hrs by fluorescence based analysis
Attribute: log10 of IC50
measurement.kind: log10 of IC50 (log10 of the value in nM)

[[record]]
mol = "COc1ccc(Nc2nccc(C(=O)Nc3cnccc3-c3ccccc3)n2)cc1"
measurement_kind = "log10 of IC50"
readout_value = -0.35

[[record]]
mol = "O=C(Nc1cnccc1OCC(F)(F)F)c1ccnc(Nc2ccc(C(F)(F)F)cc2)n1"
measurement_kind = "log10 of IC50"
readout_value = -0.55

[[record]]
mol = "O=C(Nc1cnccc1-c1ccccc1)c1ccnc(Nc2c(F)cc(Cl)cc2F)n1"
measurement_kind = "log10 of IC50"
readout_value = 0.59

[[record]]
mol = "O=C(Nc1cnccc1-c1ccccc1)c1ccnc(Nc2ccncc2)n1"
measurement_kind = "log10 of IC50"
readout_value = 0.04

[[record]]
mol = "O=C(Nc1cnccc1-c1ccccc1)c1ccnc(Nc2ccc(C(F)(F)F)cn2)c1"
measurement_kind = "log10 of IC50"
readout_value = -0.05

[[record]]
mol = "O=C(Nc1cnccc1OCC(F)(F)F)c1ccnc(Nc2ccc(C(F)(F)F)cc2)c1"
measurement_kind = "log10 of IC50"
readout_value = 1.30

[[record]]
mol = "O=C(Nc1cnccc1-c1ccccc1)c1ccnc(Nc2ccc(OC(F)(F)F)cc2)n1"
measurement_kind = "log10 of IC50"
readout_value = 0.26

[[record]]
mol = "N#Cc1ccc(Nc2nccc(C(=O)Nc3cnccc3-c3ccccc3)n2)c(Cl)c1"
measurement_kind = "log10 of IC50"
readout_value = 0.58

[[record]]
mol = "Cc1ccc(Nc2nccc(C(=O)Nc3cnccc3-c3ccccc3)n2)cc1"
measurement_kind = "log10 of IC50"
readout_value = -0.51

[[record]]
mol = "N#Cc1ccc(Nc2nccc(C(=O)Nc3cncnc3OCC(F)(F)F)n2)cc1"
measurement_kind = "log10 of IC50"
readout_value = -0.13

[[record]]
mol = "Nc1nccc(C(=O)Nc2cnccc2N2CCC(F)(F)CC2)n1"
measurement_kind = "log10 of IC50"
readout_value = 1.48

[[record]]
mol = "Cc1cc(C#N)ccc1Nc1nccc(C(=O)Nc2cnccc2-c2ccccc2)n1"
measurement_kind = "log10 of IC50"
readout_value = -0.37

[[record]]
mol = "O=C(Nc1cnccc1N1CCC(F)(F)CC1)c1ccnc(Nc2ccccc2)n1"
measurement_kind = "log10 of IC50"
readout_value = -0.70

[[record]]
mol = "CS(=O)(=O)c1ccc(Nc2nccc(C(=O)Nc3cnccc3-c3ccccc3)n2)cc1"
measurement_kind = "log10 of IC50"
readout_value = -0.60

[[record]]
mol = "O=C(Nc1cnccc1-c1ccccc1)c1ccnc(Nc2ccc(Cl)cc2)n1"
measurement_kind = "log10 of IC50"
readout_value = -0.31

[[record]]
mol = "O=C(Nc1cnccc1-c1ccc(F)cc1)c1ccnc(Nc2ccc(Cl)cc2)n1"
measurement_kind = "log10 of IC50"
readout_value = 0.04


* * *

- assay.details: Protein binding in mouse plasma assessed as unbound fraction at 10 uM incubated for 5 hrs by equilibrium dialysis method
- Type: ADME, cell-free
Attribute: fraction unbound at 5 h, 10 µM
measurement.kind: fraction unbound at 5 h, 10 µM

[[record]]
mol = "N#Cc1ccc(Nc2nccc(C(=O)Nc3cnccc3-c3ccc(F)cc3)n2)cc1"
readout_value = 0.03

[[record]]
mol = "O=C(Nc1cnccc1-c1ccc(F)cc1)c1ccnc(Nc2ccc(Cl)cc2)n1"
readout_value = 0.004

[[record]]
mol = "O=C(Nc1cnccc1-c1ccc(F)cc1)c1ccnc(Nc2ccc(F)cc2)n1"
readout_value = 0.008


* * *

- assay.details: Metabolic stability in human liver microsomes assessed as parent compound remaining at 0.5 uM measured after 10 mins in presence of NADPH by LC-MS/MS analysis
- Assay type: ADME, Microsome
- recorded.conditions: read-out: Stability
I'd appreciate it if you marked entries met when remaining at 10 min, 0.5 µM is lower than 60% and not met when it is not.

[[record]]
mol = "Cc1ccc(Nc2nccc(C(=O)Nc3cnccc3-c3ccccc3)n2)cc1"
qualitative_label = "met"

[[record]]
mol = "O=C(Nc1cnccc1-c1ccccc1)c1ccnc(Nc2c(F)cc(Cl)cc2F)n1"
qualitative_label = "met"

[[record]]
mol = "O=C(Nc1cnccc1-c1ccccc1)c1ccnc(Nc2ccncc2)n1"
qualitative_label = "met"

[[record]]
mol = "O=C(Nc1cnccc1-c1ccc(F)cc1)c1ccnc(Nc2ccc(OC(F)F)cc2)n1"
qualitative_label = "not met"

[[record]]
mol = "N#Cc1ccc(Nc2nccc(C(=O)Nc3cnccc3-c3ccccc3)n2)cc1Cl"
qualitative_label = "not met"

[[record]]
mol = "Cc1cc(C#N)ccc1Nc1nccc(C(=O)Nc2cnccc2-c2ccccc2)n1"
qualitative_label = "met"

[[record]]
mol = "O=C(Nc1cnccc1-c1ccccc1)c1ccnc(Nc2ccc(OC(F)F)cc2)n1"
qualitative_label = "not met"

[[record]]
mol = "N#Cc1ccc(Nc2nccc(C(=O)Nc3cncnc3OCC(F)(F)F)n2)cc1"
qualitative_label = "not met"


* * *

Attribute: bioavailability
- assay.details: Oral bioavailability in C57BL/6 mouse at 10 mg/kg by LC-MS/MS analysis
- Assay type: ADME, organism-based
- recorded.conditions: in vivo
measurement.kind: bioavailability (%)

[[record]]
mol = "N#Cc1ccc(Nc2nccc(C(=O)Nc3cnccc3-c3ccc(F)cc3)n2)cc1"
measurement_kind = "bioavailability"
readout_value = 100

[[record]]
mol = "O=C(Nc1cnccc1-c1ccc(F)cc1)c1ccnc(Nc2ccc(F)cc2)n1"
measurement_kind = "bioavailability"
readout_value = 53

[[record]]
mol = "O=C(Nc1cnccc1-c1ccc(F)cc1)c1ccnc(Nc2ccc(Cl)cc2)n1"
measurement_kind = "bioavailability"
readout_value = 23


* * *

- measurement.target: Glycogen synthase kinase-3 beta (Homo sapiens, UniProt P49841, H355L)
- assay.details: Displacement of FL-KRREILSRRP[ps]ERYR-NH2 from human recombinant N-terminal His6-tagged GSK-3-beta (14 to 306 residues) H355L mutant expressed in baculovirus-infected Sf21 cells incubated for 20 hrs by fluorescence based analysis
pIC50: −log10 of the molar value.
Attribute: pIC50
measurement.kind: pIC50

[[record]]
mol = "O=C(Nc1cnccc1-c1ccccc1)c1ccnc(Nc2ccc(C(F)(F)F)cc2)n1"
readout_value = 8.70

[[record]]
mol = "O=C(Nc1cnccc1-c1ccccc1)c1ccnc(Nc2cccnc2)n1"
readout_value = 8.92

[[record]]
mol = "O=C(Nc1cnccc1-c1ccc(F)cc1)c1ccnc(Nc2ccc(F)cc2)n1"
readout_value = 9.25

[[record]]
mol = "COc1ccc(Nc2nccc(C(=O)Nc3cnccc3-c3ccccc3)n2)cc1F"
readout_value = 9.74

[[record]]
mol = "N#Cc1ccc(Nc2nccc(C(=O)Nc3cnccc3-c3ccccc3)n2)cc1Cl"
readout_value = 9.62

[[record]]
mol = "O=C(Nc1cncnc1OCC(F)(F)F)c1ccnc(Nc2ccccc2)n1"
readout_value = 8.96

[[record]]
mol = "O=C(Nc1cnccc1-c1ccccc1)c1ccnc(Nc2ccccc2)n1"
readout_value = 9.37

[[record]]
mol = "N#Cc1ccc(Nc2nccc(C(=O)Nc3cnccc3-c3ccc(F)cc3)n2)cc1"
readout_value = 9.46

[[record]]
mol = "Cc1ccc(C(=O)Nc2c[nH]nc2C(=O)CCCOC(C)C)cn1"
readout_value = 8.70

[[record]]
mol = "O=C(Nc1cnccc1-c1ccccc1)c1ccnc(Nc2ccc(Cl)cc2)c1"
readout_value = 7.89


* * *

pIC50: −log10 of the molar value.
Lab note: pIC50 readings collected with Non-receptor tyrosine-protein kinase TYK2 (Homo sapiens) for the following molecules.
Sequence (P29597 whole entry): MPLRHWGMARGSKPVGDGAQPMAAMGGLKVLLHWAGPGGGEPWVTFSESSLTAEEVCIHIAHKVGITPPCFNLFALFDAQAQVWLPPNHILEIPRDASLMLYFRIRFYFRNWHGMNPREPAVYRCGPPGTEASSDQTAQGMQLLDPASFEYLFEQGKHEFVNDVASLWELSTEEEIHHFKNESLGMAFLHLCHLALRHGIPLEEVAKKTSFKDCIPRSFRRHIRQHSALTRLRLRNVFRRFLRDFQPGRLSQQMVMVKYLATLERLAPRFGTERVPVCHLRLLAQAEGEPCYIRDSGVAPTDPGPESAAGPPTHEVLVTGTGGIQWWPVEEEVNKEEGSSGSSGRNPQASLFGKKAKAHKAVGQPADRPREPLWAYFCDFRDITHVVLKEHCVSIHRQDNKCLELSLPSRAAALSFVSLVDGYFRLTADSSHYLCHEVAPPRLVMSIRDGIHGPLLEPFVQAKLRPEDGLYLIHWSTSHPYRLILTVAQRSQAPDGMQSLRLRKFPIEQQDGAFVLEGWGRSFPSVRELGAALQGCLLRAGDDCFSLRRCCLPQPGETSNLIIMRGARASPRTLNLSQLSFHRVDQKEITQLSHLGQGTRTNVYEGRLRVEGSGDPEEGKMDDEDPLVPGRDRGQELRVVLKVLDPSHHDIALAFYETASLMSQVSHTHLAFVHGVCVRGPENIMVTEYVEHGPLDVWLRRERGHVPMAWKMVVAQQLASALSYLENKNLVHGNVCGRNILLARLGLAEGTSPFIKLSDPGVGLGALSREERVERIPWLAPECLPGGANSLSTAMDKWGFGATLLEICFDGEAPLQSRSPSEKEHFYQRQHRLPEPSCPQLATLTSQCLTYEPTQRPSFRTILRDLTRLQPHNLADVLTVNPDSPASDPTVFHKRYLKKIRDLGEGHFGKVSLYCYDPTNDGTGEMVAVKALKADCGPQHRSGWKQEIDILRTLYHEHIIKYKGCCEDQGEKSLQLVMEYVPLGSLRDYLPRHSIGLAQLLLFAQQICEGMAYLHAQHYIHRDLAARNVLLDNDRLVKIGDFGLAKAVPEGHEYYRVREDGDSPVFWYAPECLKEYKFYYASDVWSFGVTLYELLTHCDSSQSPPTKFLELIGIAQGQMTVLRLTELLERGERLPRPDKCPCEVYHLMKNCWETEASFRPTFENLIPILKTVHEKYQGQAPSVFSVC
measurement.kind: pIC50

[[record]]
mol = "O=C(Nc1cnccc1-c1ccc(F)cc1)c1ccnc(Nc2ccc(F)cc2)n1"
qualifier_symbol = "="
readout_value = 4.77

[[record]]
mol = "N#Cc1ccc(Nc2nccc(C(=O)Nc3cnccc3-c3ccc(F)cc3)n2)cc1"
qualifier_symbol = "<"
readout_value = 4.30

